Here, each record is paired with measured interaction score data.
- system_under_test: T1, 4H458-AA
- T1 chain: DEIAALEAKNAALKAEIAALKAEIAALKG
- protocol: two-hybrid library CCmax;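 also: natural log of median RNA to DNA barcode read ratio; higher means stronger binding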
- test_conditions: mean of both orientations
quantity_measured: interaction score

[
  {
    "binder": "DKIAALKAEIAALKAENAALKAEIAALEG [4H2649-AA]",
    "quantity_measured": "interaction score",
    "observed_result": -1.33
  },
  {
    "binder": "DENAALKAEIAALEAKIAALKAENAALEG [4H1579-AA]",
    "quantity_measured": "interaction score",
    "observed_result": -1.8
  },
  {
    "binder": "DKNAALEAKIAALKAENAALEAEIAALKG [4H3410-AA]",
    "quantity_measured": "interaction score",
    "observed_result": 1.79
  },
  {
    "binder": "DKNAALKAEIAALKAKNAALEAEIAALEG [4H3697-AA]",
    "quantity_measured": "interaction score",
    "observed_result": -1.36
  },
  {
    "binder": "DEIAALEAKIAALEAKNAALEAKIAALKG [4H310-AA]",
    "quantity_measured": "interaction score",
    "observed_result": 1.7
  },
  {
    "binder": "DKIAALEAKIAALKAENAALEAKIAALEG [4H2389-AA]",
    "quantity_measured": "interaction score",
    "observed_result": -0.364
  },
  {
    "binder": "DENAALKAKIAALEAKNAALEAEIAALKG [4H1842-AA]",
    "quantity_measured": "interaction score",
    "observed_result": -1.14
  }
]

Every entry's value here was drawn from paper PMC10397247.
